These data points were gathered from patent US7541366B2.

# target_desc: proton pump (H+/K+-ATPase) (Sus scrofa)
# Construct: used as an enzyme source of the in vitro enzyme reaction assay of proton pump; membrane vesicles, lyophilized
# Sequence (P19156 whole entry): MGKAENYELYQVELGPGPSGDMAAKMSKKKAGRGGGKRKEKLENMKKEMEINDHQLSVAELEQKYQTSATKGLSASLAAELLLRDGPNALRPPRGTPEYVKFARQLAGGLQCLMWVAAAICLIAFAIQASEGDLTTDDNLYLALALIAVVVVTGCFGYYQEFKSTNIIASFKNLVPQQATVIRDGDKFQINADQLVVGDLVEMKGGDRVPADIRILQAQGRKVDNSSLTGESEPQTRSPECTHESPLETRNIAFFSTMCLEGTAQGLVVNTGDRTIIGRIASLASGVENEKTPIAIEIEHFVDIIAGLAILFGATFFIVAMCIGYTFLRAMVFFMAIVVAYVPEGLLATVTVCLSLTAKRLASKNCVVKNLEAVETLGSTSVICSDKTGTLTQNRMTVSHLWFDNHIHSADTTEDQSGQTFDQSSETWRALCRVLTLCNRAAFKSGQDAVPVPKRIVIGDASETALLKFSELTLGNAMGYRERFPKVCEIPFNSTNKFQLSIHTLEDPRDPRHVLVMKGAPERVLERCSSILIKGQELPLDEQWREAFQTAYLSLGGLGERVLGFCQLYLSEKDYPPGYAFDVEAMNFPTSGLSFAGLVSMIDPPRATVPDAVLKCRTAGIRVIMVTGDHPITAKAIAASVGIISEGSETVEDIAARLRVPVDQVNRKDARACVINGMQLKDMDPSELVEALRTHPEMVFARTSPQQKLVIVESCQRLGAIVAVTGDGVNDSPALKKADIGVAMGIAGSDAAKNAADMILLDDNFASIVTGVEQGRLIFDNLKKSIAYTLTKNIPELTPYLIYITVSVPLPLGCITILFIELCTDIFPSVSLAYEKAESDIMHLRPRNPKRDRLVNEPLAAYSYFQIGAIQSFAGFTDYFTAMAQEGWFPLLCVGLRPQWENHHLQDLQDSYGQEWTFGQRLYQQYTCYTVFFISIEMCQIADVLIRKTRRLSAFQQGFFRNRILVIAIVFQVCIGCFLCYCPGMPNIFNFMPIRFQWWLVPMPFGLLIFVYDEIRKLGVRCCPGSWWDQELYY
# Sequence (P18434 whole entry partner): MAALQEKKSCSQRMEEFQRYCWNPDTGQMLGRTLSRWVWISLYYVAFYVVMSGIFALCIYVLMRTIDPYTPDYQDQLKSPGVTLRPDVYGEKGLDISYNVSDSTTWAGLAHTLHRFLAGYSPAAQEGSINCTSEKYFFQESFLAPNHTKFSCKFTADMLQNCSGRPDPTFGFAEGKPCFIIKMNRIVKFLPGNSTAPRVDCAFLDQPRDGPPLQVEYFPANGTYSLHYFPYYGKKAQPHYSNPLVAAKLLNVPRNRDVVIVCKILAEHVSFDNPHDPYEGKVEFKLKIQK
# assay_text: Inhibitory effects on proton pump (H+/K+-ATPase) activity
# run_parameters: hog gastric vesicles, K+ stimulated H+/K+-ATPase activity, Pi at 620 nm, 30 minutes at 37° C.
pIC50: −log10 of the molar value. Structures can show the parent of a compound that is named as a salt.
Returns one of satisfied or not satisfied; satisfied when pIC50 is >= 7.

{"compound": "Cc1c(C)n(Cc2ccc3c(c2)OCCO3)c2c(N3CCc4ccccc4C3)cncc12 [Example 30, hydrochloride]", "target_desc": "proton pump (H+/K+-ATPase) (Sus scrofa)", "category_label": "not satisfied"}
{"compound": "Cc1c(C)n(Cc2cccc(F)c2)c2c(OCc3ccc(F)cc3)cncc12 [Example 6, hydrochloride]", "target_desc": "proton pump (H+/K+-ATPase) (Sus scrofa)", "category_label": "satisfied"}
{"compound": "Cc1[nH]c2c(N3CCc4ccccc4C3)cncc2c1C [Example 27, hydrochloride]", "target_desc": "proton pump (H+/K+-ATPase) (Sus scrofa)", "category_label": "not satisfied"}
{"compound": "Cc1c(C)n(CC2CCC2)c2c(N3CCc4ccccc4C3)cncc12 [Example 37, hydrochloride]", "target_desc": "proton pump (H+/K+-ATPase) (Sus scrofa)", "category_label": "not satisfied"}
{"compound": "C=COCCn1c(C)c(C)c2cncc(N3CCc4ccccc4C3)c21 [Example 33, hydrochloride]", "target_desc": "proton pump (H+/K+-ATPase) (Sus scrofa)", "category_label": "not satisfied"}
{"compound": "Cc1c(C)n(Cc2ccc(F)cc2)c2c(OCc3ccc(F)cc3)cncc12 [Example 9, hydrochloride]", "target_desc": "proton pump (H+/K+-ATPase) (Sus scrofa)", "category_label": "satisfied"}
{"compound": "Cc1c(C)n(CC2OCCO2)c2c(N3CCc4ccccc4C3)cncc12 [Example 34, hydrochloride]", "target_desc": "proton pump (H+/K+-ATPase) (Sus scrofa)", "category_label": "not satisfied"}
{"compound": "Cc1c(C)n(CC(C)C)c2c(N3CCc4ccccc4C3)cncc12 [Example 36, hydrochloride]", "target_desc": "proton pump (H+/K+-ATPase) (Sus scrofa)", "category_label": "not satisfied"}
{"compound": "Cc1c(C)n(CC2CC2)c2c(N3CCc4ccccc4C3)cncc12 [Example 39, hydrochloride]", "target_desc": "proton pump (H+/K+-ATPase) (Sus scrofa)", "category_label": "not satisfied"}
{"compound": "Cc1c(C)n(Cc2ccc3ccccc3c2)c2c(N3CCc4ccccc4C3)cncc12 [Example 32, hydrochloride]", "target_desc": "proton pump (H+/K+-ATPase) (Sus scrofa)", "category_label": "not satisfied"}
{"compound": "CCCn1c(C)c(C)c2cncc(N3CCc4ccccc4C3)c21.Cl [Example 38, hydrochloride]", "target_desc": "proton pump (H+/K+-ATPase) (Sus scrofa)", "category_label": "not satisfied"}
{"compound": "Cc1c(C)n(Cc2ccccc2)c2c(OCc3ccc(F)cc3)cncc12.Cl [Example 12, hydrochloride]", "target_desc": "proton pump (H+/K+-ATPase) (Sus scrofa)", "category_label": "satisfied"}
{"compound": "CCn1c(C)c(C)c2cncc(OCc3ccc(F)cc3)c21 [Example 3, hydrochloride]", "target_desc": "proton pump (H+/K+-ATPase) (Sus scrofa)", "category_label": "satisfied"}
{"compound": "COc1cccc(Cn2c(C)c(C)c3cncc(OCc4ccc(F)cc4)c32)c1 [Example 7, hydrochloride]", "target_desc": "proton pump (H+/K+-ATPase) (Sus scrofa)", "category_label": "satisfied"}
{"compound": "Cc1c(C)n(Cc2ccc(F)cc2)c2c(N3CCc4ccccc4C3)cncc12 [Example 28, hydrochloride]", "target_desc": "proton pump (H+/K+-ATPase) (Sus scrofa)", "category_label": "not satisfied"}
{"compound": "Cc1c(C)n(CC(C)C)c2c(OCc3ccc(F)cc3)cncc12 [Example 11, hydrochloride]", "target_desc": "proton pump (H+/K+-ATPase) (Sus scrofa)", "category_label": "satisfied"}
